pIC50: −log10 of the molar value.
Entries with their measured pIC50, system mouse Smoothened receptor (Mus musculus):
readout: pIC50

INSERT INTO results (compound, subject_of_test, observed) VALUES
  ('OC1(c2ccc(N3CCN(c4nnc(Cc5ccccc5)c5ccccc45)CC3)nc2)CC1', 'mouse Smoothened receptor (Mus musculus)', '> 7.00'),
  ('O=S(=O)(c1ccc(N2CCN(c3nnc(Cc4ccccc4)c4ccccc34)CC2)nc1)N1CCCC1', 'mouse Smoothened receptor (Mus musculus)', '6.00 to 7.00'),
  ('N#Cc1ccc(N2CCN(c3nnc(Cc4cccc(C(F)(F)F)c4)c4ccccc34)CC2)nc1', 'mouse Smoothened receptor (Mus musculus)', '> 7.00'),
  ('CC(C)(C)OC(=O)NC1CN(C(=O)c2ccc(N3CCN(c4nnc(Cc5ccccc5)c5ccccc45)CC3)nc2)C1 [Example 54v]', 'mouse Smoothened receptor (Mus musculus)', '6.00 to 7.00'),
  ('Cc1cc(Cc2ccccc2)nnc1N1CCN(c2ccc(C(F)(F)F)cn2)CC1', 'mouse Smoothened receptor (Mus musculus)', '6.00 to 7.00');

###

subject of test: mouse Smoothened receptor (Mus musculus, UniProt P56726)
Sequence (P56726 33-793): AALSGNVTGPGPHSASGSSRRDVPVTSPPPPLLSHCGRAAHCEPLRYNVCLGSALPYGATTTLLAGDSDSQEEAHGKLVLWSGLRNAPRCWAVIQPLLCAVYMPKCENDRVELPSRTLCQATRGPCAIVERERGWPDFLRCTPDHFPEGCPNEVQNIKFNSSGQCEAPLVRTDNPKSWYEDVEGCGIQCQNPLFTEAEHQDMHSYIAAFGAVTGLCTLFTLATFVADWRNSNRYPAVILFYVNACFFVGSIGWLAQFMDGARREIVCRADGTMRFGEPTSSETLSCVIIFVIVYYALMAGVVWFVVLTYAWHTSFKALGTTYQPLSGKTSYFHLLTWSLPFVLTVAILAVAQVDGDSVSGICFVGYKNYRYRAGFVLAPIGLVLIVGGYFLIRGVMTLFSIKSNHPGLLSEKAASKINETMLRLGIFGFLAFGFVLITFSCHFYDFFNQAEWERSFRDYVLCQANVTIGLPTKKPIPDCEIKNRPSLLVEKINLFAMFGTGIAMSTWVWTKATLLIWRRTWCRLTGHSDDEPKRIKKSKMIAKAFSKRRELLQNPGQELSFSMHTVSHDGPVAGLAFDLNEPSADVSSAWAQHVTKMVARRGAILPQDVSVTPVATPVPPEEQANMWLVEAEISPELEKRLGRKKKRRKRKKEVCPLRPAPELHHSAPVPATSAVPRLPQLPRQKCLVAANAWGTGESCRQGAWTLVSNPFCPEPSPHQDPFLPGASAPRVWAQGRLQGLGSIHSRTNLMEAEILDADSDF
pIC50: −log10 of the molar value.
readout: pIC50

INSERT INTO assay_data (compound, subject_of_test, readout, observed) VALUES
  ('N#Cc1ccc(N2CCC(c3cn(Cc4ccccc4)c4ccccc34)CC2)nc1 [Example 100]', 'mouse Smoothened receptor (Mus musculus, UniProt P56726)', 'pIC50', '6.00 to 7.00'),
  ('FC1(F)CCN(Cc2ccc(N3CCN(c4nnc(Cc5ccccc5)c5ccccc45)CC3)nc2)CC1 [Example 228]', 'mouse Smoothened receptor (Mus musculus, UniProt P56726)', 'pIC50', '> 7.00'),
  ('C[C@@H]1CN(c2ccc(C#N)cn2)CCN1c1nnc(Cc2ccccc2)c2ccccc12 [Example 118]', 'mouse Smoothened receptor (Mus musculus, UniProt P56726)', 'pIC50', '6.00 to 7.00'),
  ('N#Cc1ccc(N2CCN(c3nnc(Cc4ccc(F)cc4)c4c3CCCC4)CC2)nc1 [Example 93b]', 'mouse Smoothened receptor (Mus musculus, UniProt P56726)', 'pIC50', '6.00 to 7.00'),
  ('Cc1cc(N2CCN(c3ccc(C(F)(F)F)cn3)CC2)nnc1Cc1ccccc1 [Example 89]', 'mouse Smoothened receptor (Mus musculus, UniProt P56726)', 'pIC50', '> 7.00'),
  ('CCCNC(=O)c1ccc(N2CCN(c3nnc(Cc4ccccc4)c4ccccc34)CC2)nc1 [Example 54n]', 'mouse Smoothened receptor (Mus musculus, UniProt P56726)', 'pIC50', '> 7.00'),
  ('OC1(c2ccc(N3CCN(c4nnc(Cc5ccccc5)c5ccccc45)CC3)nc2)COC1 [Example 111]', 'mouse Smoothened receptor (Mus musculus, UniProt P56726)', 'pIC50', '> 7.00'),
  ('O=C(c1ccc(C(F)(F)F)cc1)N1CCC(c2cn(Cc3ccc(F)cc3)c3ccccc23)CC1 [Example 104]', 'mouse Smoothened receptor (Mus musculus, UniProt P56726)', 'pIC50', '5.00 to 6.00'),
  ('COCC(=O)NCc1ccc(N2CCN(c3nnc(Cc4ccccc4)c4ccccc34)CC2)cc1 [Example 78b]', 'mouse Smoothened receptor (Mus musculus, UniProt P56726)', 'pIC50', '6.00 to 7.00'),
  ('CN(Cc1ccc(N2CCN(c3nnc(Cc4ccccc4)c4ccccc34)CC2)nc1)C1CCOCC1 [Example 226]', 'mouse Smoothened receptor (Mus musculus, UniProt P56726)', 'pIC50', '> 7.00'),
  ('Cc1cc(C)nc(N2CCN(c3nnc(Cc4ccccc4)c4ccccc34)CC2)n1 [Example 48]', 'mouse Smoothened receptor (Mus musculus, UniProt P56726)', 'pIC50', '> 7.00'),
  ('C[C@H]1CN(c2nnc(Cc3ccccc3)c3ccccc23)CCN1c1ccc(C#N)cn1 [Example 143]', 'mouse Smoothened receptor (Mus musculus, UniProt P56726)', 'pIC50', '> 7.00'),
  ('O=C(NCCO)c1ccc(N2CCN(c3nnc(Cc4ccccc4)c4ccccc34)CC2)nc1 [Example 54e]', 'mouse Smoothened receptor (Mus musculus, UniProt P56726)', 'pIC50', '6.00 to 7.00'),
  ('N#Cc1cccc(C(=O)N2CCC(c3cn(Cc4ccc(F)cc4)c4ccccc34)CC2)c1 [Example 94]', 'mouse Smoothened receptor (Mus musculus, UniProt P56726)', 'pIC50', '6.00 to 7.00'),
  ('N#Cc1ccc(N2CCN(c3nnc(Cc4ccc(F)cc4)c4ccccc34)CC2)nc1 [Example 181]', 'mouse Smoothened receptor (Mus musculus, UniProt P56726)', 'pIC50', '> 7.00'),
  ('COCCN(C)C(=O)c1ccc(N2CCN(c3nnc(Cc4ccccc4)c4ccccc34)CC2)nc1 [Example 54g]', 'mouse Smoothened receptor (Mus musculus, UniProt P56726)', 'pIC50', '6.00 to 7.00'),
  ('CN(CCO)C(=O)c1ccc(N2CCN(c3nnc(Cc4ccc(F)cc4F)c4ccccc34)CC2)nc1 [Example 199]', 'mouse Smoothened receptor (Mus musculus, UniProt P56726)', 'pIC50', '6.00 to 7.00');
